Value source: a melting point compilation (Tetko et al.; mined from patent text by program, amines drawn as free bases though some values may be those of a salt)

Reported melting point is given for each of the following compounds.

COMPOUND | melting point
CN(C)C(=O)c1ccccc1I | 33 to 36 °C
CCOC(=O)C1CCn2c(cc3ccccc32)C1 (configuration not stated) | 70 to 72 °C
Cc1ccc(-n2c(=O)[nH]c(C(F)(F)F)c(F)c2=O)cc1C(=O)OC(C)C | 97 to 100 °C
CC(C)(C)OC(=O)/C=C1/CCCCC1n1nc(-c2c(-c3ccccc3)nn3ccccc23)ccc1=O (configuration not stated) | 110 to 116 °C
CN1Cc2ccccc2CC1c1ccc(C(C)(C)C)cc1 (configuration not stated) | 53 to 54.5 °C
O=C(Nc1ccc(C(=O)N2Cc3ccc(C(=O)C(Cl)(Cl)Cl)n3Cc3ccccc32)cc1)c1ccccc1C(F)(F)F | 219 to 221 °C
CC(C)(C)c1ccc(N2C(=O)CCC2=O)c([N+](=O)[O-])c1 | 135 to 138 °C
